Reference source: PubChem BioAssay (NCI)

Test system: MDA-N
method notes: NCI tumour cell line growth inhibition, 48 h
Items are presented alongside their recorded TGI.

C[C@]12CC[C@H]3[C@@H](CC[C@]4(O)C[C@@H](O)CC[C@]34CO)[C@@]1(O)CC[C@@H]2C1=CC(=O)OC1 :: 14.4 µM

Item under review: CC1(C)C=[N+]([O-])C(C)(C)N1O . Reported TGI? > 10 µM

And then COc1cc2c(cc1OC)C(=O)/C(=C/c1ccc(O)cc1)CC2 , what is it? > 10 µM

And then CC(=O)O[C@H]1CCC2[C@@H]3CCC4NC(=O)C(C#N)C[C@]4(C)C3CC[C@@]21C (some centres undefined) , what is it? > 10 µM

And then CC1CN=C(c2ccc(CN3CCC(C4CCN(Cc5ccc(C6=NCC(C)N6)cc5)CC4)CC3)cc2)N1 (centres undefined) , what is it? 47.3 µM

And then COC(=O)/C=C1\C(=O)C=C2[C@@H]3C[C@H]4C[C@H](CC[C@@]4(C)N21)C3(C)NC(C)=O (some centres undefined) , what is it? 33.4 µM

And then N#Cc1c(N2CCN(c3ccc([N+](=O)[O-])cc3)CC2)[n+](=O)c2ccc(-c3ccc([N+](=O)[O-])cc3)cc2n1[O-] , what is it? > 100 µM

And then O=c1nc2ccc3sc4ccccc4c(=O)c3n2c(=O)[nH]1 , what is it? > 100 µM

And then COc1cc2c3c(c1OC)C1(C=CC(=O)C=C1)CC3NCC2 (centres undefined) , what is it? > 100 µM
